# measurement.target: Voltage-gated inwardly rectifying potassium channel KCNH2 (Homo sapiens); note: assay procedure not described here
# Sequence (Q12809 whole entry): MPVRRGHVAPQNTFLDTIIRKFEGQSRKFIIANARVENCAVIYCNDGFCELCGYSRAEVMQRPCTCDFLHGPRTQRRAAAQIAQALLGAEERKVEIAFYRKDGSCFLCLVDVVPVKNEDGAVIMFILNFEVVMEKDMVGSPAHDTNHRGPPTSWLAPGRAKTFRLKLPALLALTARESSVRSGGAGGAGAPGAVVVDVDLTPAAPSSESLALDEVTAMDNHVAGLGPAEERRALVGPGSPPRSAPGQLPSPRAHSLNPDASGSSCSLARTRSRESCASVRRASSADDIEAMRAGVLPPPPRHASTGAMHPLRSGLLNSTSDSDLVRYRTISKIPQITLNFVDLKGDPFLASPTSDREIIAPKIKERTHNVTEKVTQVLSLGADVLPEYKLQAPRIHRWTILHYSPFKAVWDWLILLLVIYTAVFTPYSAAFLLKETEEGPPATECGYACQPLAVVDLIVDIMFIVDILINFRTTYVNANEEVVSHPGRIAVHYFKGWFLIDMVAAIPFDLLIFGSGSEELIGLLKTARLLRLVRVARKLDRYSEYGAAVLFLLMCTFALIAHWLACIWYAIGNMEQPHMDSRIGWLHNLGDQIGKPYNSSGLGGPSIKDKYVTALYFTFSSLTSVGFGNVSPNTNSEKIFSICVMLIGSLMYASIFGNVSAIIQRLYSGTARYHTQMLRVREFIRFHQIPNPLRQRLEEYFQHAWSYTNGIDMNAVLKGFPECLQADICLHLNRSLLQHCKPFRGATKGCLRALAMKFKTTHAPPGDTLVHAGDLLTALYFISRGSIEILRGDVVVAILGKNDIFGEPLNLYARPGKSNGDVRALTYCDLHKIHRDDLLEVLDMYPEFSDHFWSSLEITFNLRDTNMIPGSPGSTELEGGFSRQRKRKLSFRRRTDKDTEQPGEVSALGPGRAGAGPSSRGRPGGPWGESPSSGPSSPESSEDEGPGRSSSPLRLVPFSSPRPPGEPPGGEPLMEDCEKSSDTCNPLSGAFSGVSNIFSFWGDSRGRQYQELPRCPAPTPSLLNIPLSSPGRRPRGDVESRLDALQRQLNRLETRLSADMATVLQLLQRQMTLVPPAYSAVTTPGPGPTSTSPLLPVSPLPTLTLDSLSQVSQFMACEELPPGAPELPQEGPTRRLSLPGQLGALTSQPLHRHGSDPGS
# Type: functional
# cond: read-out: AC50
experimental.readout: AC50

Below, each entry is followed by its recorded AC50 result.
| compound | experimental.readout | result |
| --- | --- | --- |
| O=C1CC[C@@]2(O)[C@H]3Cc4ccc(O)c5c4[C@@]2(CCN3CC2CC2)[C@H]1O5 [NALTREXONE] | AC50 | > 30 µM |
| CN(C)[C@@H]1C(O)=C(C(N)=O)C(=O)[C@@]2(O)C(O)=C3C(=O)c4c(O)ccc(Cl)c4[C@@H](O)[C@H]3C[C@@H]12 [DEMECLOCYCLINE] | AC50 | > 30 µM |
| Oc1ncnc2[nH]ncc12 [ALLOPURINOL] | AC50 | > 30 µM |
| NC(=O)c1cnccn1 [PYRAZINAMIDE] | AC50 | > 30 µM |
| COCC1=C(C(=O)OC(C)OC(=O)OC(C)C)N2C(=O)[C@@H](NC(=O)/C(=N\OC)c3csc(N)n3)[C@H]2SC1 (some centres undefined) [CEFPODOXIME PROXETIL] | AC50 | > 30 µM |

Input line: Which AC50 value is on record for OCCN1CCN(CCCN2c3ccccc3C=Cc3ccccc32)CC1 [OPIPRAMOL] ?
Output line: 14 µM

Input line: Continue with CC(=O)O[C@]1(C(C)=O)CC[C@H]2[C@@H]3C[C@H](C)C4=CC(=O)CC[C@]4(C)[C@H]3CC[C@@]21C [MEDROXYPROGESTERONE ACETATE]
Output line: > 30 µM

Input line: Continue with O=C(O)c1cccc(-c2noc(-c3ccccc3F)n2)c1
Output line: > 30 µM

Input line: Continue with O=C1c2ccccc2C(=O)C1C(=O)C(c1ccccc1)c1ccccc1 [DIPHENADIONE]
Output line: > 30 µM

Input line: Continue with CCN(CC)CCNc1ccc(C)c2sc3ccccc3c(=O)c12 [LUCANTHONE]
Output line: 1.3 µM

Input line: Continue with C1COC(NC(C2CC2)C2CC2)=N1 [RILMENIDINE]
Output line: > 30 µM

Input line: Continue with CN(Cc1cc(Br)cc(Br)c1N)C1CCCCC1 [BROMHEXINE]
Output line: 20 µM

Input line: Continue with COc1ccc(CCC(C)NCC(O)c2ccc(O)c([S+](C)[O-])c2)cc1 (centres undefined) [SULFINALOL]
Output line: > 30 µM

Input line: Continue with COc1ccc(C(=O)NCc2ccc(OCCN(C)C)cc2)cc1OC [ITOPRIDE]
Output line: > 30 µM

Input line: Continue with Nc1ccc(/N=N/c2ccccc2)c(N)n1 [PHENAZOPYRIDINE]
Output line: 14 µM

---

# measurement.target: 5-hydroxytryptamine receptor 2B (Homo sapiens); note: assay procedure not described here
# Sequence (P41595 whole entry): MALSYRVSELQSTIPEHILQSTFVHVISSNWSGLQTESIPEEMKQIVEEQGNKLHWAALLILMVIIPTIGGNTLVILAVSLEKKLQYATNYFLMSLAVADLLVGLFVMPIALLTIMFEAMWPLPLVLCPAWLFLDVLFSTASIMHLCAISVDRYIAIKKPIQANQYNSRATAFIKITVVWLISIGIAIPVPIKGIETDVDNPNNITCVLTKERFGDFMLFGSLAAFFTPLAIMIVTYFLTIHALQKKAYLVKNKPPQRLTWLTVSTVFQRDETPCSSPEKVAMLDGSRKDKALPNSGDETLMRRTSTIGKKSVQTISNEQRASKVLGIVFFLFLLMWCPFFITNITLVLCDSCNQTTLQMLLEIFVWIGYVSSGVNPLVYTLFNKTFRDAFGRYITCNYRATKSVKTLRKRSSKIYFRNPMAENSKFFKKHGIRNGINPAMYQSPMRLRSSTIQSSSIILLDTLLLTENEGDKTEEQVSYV
# Format: functional, cell-based
experimental.readout: AC50

Below, each entry is followed by its recorded AC50 result.
| compound | AC50 |
| --- | --- |
| CCN1CCC[C@H]1CNC(=O)c1cc(S(N)(=O)=O)ccc1OC [LEVOSULPIRIDE] | > 10 µM |
| CN1CC[C@]23CCCC[C@H]2[C@H]1Cc1ccc(O)cc13 | > 10 µM |
| CC(C)[N+](C)(CCC(C(N)=O)(c1ccccc1)c1ccccc1)C(C)C [ISOPROPAMIDE] | > 10 µM |
| CC1=CC(=O)c2ccccc2C1=O | > 10 µM |

Kindly review the next compound as well.
Input line: Which AC50 value is on record for COC(=O)C1=C(C)NC(C)=C(C(=O)OC(C)C)C1c1cccc2nonc12 (stereo not given) ?
Output line: > 10 µM
